Measurement Notes: Solubility at pH 7.0
Assay type: physicochemical
Measurement Context: buffer
Metric: solubility

Problem: # solubility lookup, item `NC(=O)c1nn(CC(F)(F)F)c2c1CCc1cnc(NC3CCCC3)nc1-2`
Solution: < 1 µM

----------
System: Cyclin-dependent kinase 2/cyclin A (Homo sapiens, UniProt P24941)
Measurement Notes: Inhibition of CDK2/Cyclin A
The threshold is 40 nM. Values of IC50 beneath it are tagged 1 (yes); values meeting or exceeding it are tagged 0 (no).

Below, 5 compounds whose answers are already recorded.
Problem: Lab note: confirm whether the reported IC50 for this compound is below 40 nM, equality not counting. compound: `NC(=O)c1nn(CC(F)(F)F)c2c1CCc1cnc(NC3CCCC3)nc1-2`
Solution: 1 (yes)

Problem: Lab note: confirm whether the reported IC50 for this compound is below 40 nM, equality not counting. compound: `CN1CCN(C(=O)N2CCC(Nc3ncc4c(n3)-c3c(c(C(N)=O)nn3C)CC4)CC2)CC1`
Solution: 1 (yes)

Problem: Lab note: confirm whether the reported IC50 for this compound is below 40 nM, equality not counting. compound: `CNC(=O)c1nn(C2CCN(C)CC2)c2c1CCc1cnc(NC3CCCC3)nc1-2`
Solution: 0 (no)

Problem: Lab note: confirm whether the reported IC50 for this compound is below 40 nM, equality not counting. compound: `COc1ccc(-n2nc(C(N)=O)c3c2-c2nc(NC4CCCC4)ncc2CC3)cc1`
Solution: 1 (yes)

Problem: Lab note: confirm whether the reported IC50 for this compound is below 40 nM, equality not counting. compound: `Cn1nc(C(N)=O)c2c1-c1nc(NCc3ccc(S(C)(=O)=O)cc3)ncc1CC2`
Solution: 1 (yes)

***
Problem: Lab note: confirm whether the reported IC50 for this compound is below 40 nM, equality not counting. compound: `Cn1nc(C(N)=O)c2c1-c1nc(NC3CCCCC3)ncc1CC2`
Solution: 1 (yes)

Problem: Lab note: confirm whether the reported IC50 for this compound is below 40 nM, equality not counting. compound: `CNC(=O)c1nn(C)c2c1CCc1cnc(NC3CCN(C(=O)c4ccccc4)CC3)nc1-2`
Solution: 1 (yes)

Problem: Lab note: confirm whether the reported IC50 for this compound is below 40 nM, equality not counting. compound: `Cn1nc(C(N)=O)c2c1-c1nc(NC3CCCC3)ncc1CC2`
Solution: 1 (yes)

----------
Measurement Notes: Solubility at pH 7.0
Type: physicochemical
Measurement Context: buffer
Entries and their solubility values follow.

Problem: # solubility lookup, item `Cn1nc(C(=O)N(O)C2CCCCC2)c2c1-c1nc(NC3CCCC3)ncc1CC2`
Solution: < 1 µM

Problem: # solubility lookup, item `Cn1nc(C(N)=O)c2c1-c1nc(N)ncc1CC2`
Solution: > 225 µM

Problem: # solubility lookup, item `CN1CCN(C(=O)N2CCC(Nc3ncc4c(n3)-c3c(c(C(N)=O)nn3C)CC4)CC2)CC1`
Solution: > 225 µM

Problem: # solubility lookup, item `Cn1nc(C(N)=O)c2c1-c1nc(NC3CCCCC3)ncc1CC2`
Solution: < 1 µM

Problem: # solubility lookup, item `Cn1nc(C(N)=O)c2c1-c1nc(NCc3ccc(Br)cc3)ncc1CC2`
Solution: < 1 µM

Problem: # solubility lookup, item `NC(=O)c1nn(Cc2ccccc2)c2c1CCc1cnc(NC3CCCC3)nc1-2`
Solution: < 1 µM

Problem: # solubility lookup, item `NC(=O)c1nn(-c2ccccc2)c2c1CCc1cnc(NC3CCCC3)nc1-2`
Solution: < 1 µM

Problem: # solubility lookup, item `CN1CCC(Nc2ncc3c(n2)-c2c(c(C(N)=O)nn2C)CC3)CC1`
Solution: > 225 µM

Problem: # solubility lookup, item `Cn1nc(C(N)=O)c2c1-c1nc(NCCO)ncc1CC2`
Solution: > 225 µM

Problem: # solubility lookup, item `CNC(=O)c1nn(C)c2c1CCc1cnc(NC3CCN(C(C)=O)CC3)nc1-2`
Solution: > 225 µM

***
Problem: # solubility lookup, item `Cn1nc(C(=O)N(O)Cc2ccccc2)c2c1-c1nc(NC3CCCC3)ncc1CC2`
Solution: < 1 µM

----------
System: Cyclin-dependent kinase 2/cyclin A (Homo sapiens, UniProt P24941)
Measurement Notes: Inhibition of CDK2/Cyclin A
Entries and their pIC50 values follow.
Scale explanation: pIC50 corresponds to minus log10 of a concentration expressed in moles per litre.

Some solved entries appear below for comparison.
Problem: # pIC50 lookup, item `Cn1nc(C(=O)N(O)Cc2ccccc2)c2c1-c1nc(NC3CCCC3)ncc1CC2`
Solution: 5.86

Problem: # pIC50 lookup, item `CN1CCN(c2ccc(CNc3ncc4c(n3)-c3c(c(C(N)=O)nn3C)CC4)cc2)CC1`
Solution: 7.77

Problem: # pIC50 lookup, item `CC(=O)N1CCC(n2nc(C(N)=O)c3c2-c2nc(NC4CCCC4)ncc2CC3)CC1`
Solution: 8.15

Problem: # pIC50 lookup, item `NC(=O)c1nn(-c2ccc(S(N)(=O)=O)cc2)c2c1CCc1cnc(NC3CCCC3)nc1-2`
Solution: 8.30

Problem: # pIC50 lookup, item `CNC(=O)c1nn(C)c2c1CCc1cnc(NC3CCCC3)nc1-2`
Solution: 7.01

***
Problem: # pIC50 lookup, item `CN1CCN(c2cccc(CNc3ncc4c(n3)-c3c(c(C(N)=O)nn3C)CC4)c2)CC1`
Solution: 6.98

----------
Measurement Notes: Solubility at pH 7.0
Format: physicochemical
Measurement Context: buffer
Outcome label depends on solubility relative to 200 µM: at/above gives Satisfied, below gives Not satisfied.

Below, 2 molecules whose answers are already recorded.
Problem: Decide: solubility of `CCN1CCC(Nc2ncc3c(n2)-c2c(c(C(N)=O)nn2C)CC3)CC1` >= 200 µM?
Solution: Satisfied

Problem: Decide: solubility of `Cn1nc(C(N)=O)c2c1-c1nc(NCCN3CCCCC3)ncc1CC2` >= 200 µM?
Solution: Not satisfied

***
Problem: Decide: solubility of `Cn1nc(C(N)=O)c2c1-c1nc(NC3CCN(C(=O)c4ccccc4)CC3)ncc1CC2` >= 200 µM?
Solution: Not satisfied

Problem: Decide: solubility of `CN1CCN(c2ccc(CNc3ncc4c(n3)-c3c(c(C(N)=O)nn3C)CC4)cc2)CC1` >= 200 µM?
Solution: Not satisfied

Problem: Decide: solubility of `COc1cccc(CNc2ncc3c(n2)-c2c(c(C(N)=O)nn2C)CC3)c1` >= 200 µM?
Solution: Not satisfied

Problem: Decide: solubility of `COc1ccc(CNc2ncc3c(n2)-c2c(c(C(N)=O)nn2C)CC3)cc1` >= 200 µM?
Solution: Not satisfied
